- measured on: recombinant D842V mutant PDGFRα (Homo sapiens, UniProt P16234, D842V)
- Construct: His (N)
- Sequence (P16234 with tags, fused parts or gaps D842V): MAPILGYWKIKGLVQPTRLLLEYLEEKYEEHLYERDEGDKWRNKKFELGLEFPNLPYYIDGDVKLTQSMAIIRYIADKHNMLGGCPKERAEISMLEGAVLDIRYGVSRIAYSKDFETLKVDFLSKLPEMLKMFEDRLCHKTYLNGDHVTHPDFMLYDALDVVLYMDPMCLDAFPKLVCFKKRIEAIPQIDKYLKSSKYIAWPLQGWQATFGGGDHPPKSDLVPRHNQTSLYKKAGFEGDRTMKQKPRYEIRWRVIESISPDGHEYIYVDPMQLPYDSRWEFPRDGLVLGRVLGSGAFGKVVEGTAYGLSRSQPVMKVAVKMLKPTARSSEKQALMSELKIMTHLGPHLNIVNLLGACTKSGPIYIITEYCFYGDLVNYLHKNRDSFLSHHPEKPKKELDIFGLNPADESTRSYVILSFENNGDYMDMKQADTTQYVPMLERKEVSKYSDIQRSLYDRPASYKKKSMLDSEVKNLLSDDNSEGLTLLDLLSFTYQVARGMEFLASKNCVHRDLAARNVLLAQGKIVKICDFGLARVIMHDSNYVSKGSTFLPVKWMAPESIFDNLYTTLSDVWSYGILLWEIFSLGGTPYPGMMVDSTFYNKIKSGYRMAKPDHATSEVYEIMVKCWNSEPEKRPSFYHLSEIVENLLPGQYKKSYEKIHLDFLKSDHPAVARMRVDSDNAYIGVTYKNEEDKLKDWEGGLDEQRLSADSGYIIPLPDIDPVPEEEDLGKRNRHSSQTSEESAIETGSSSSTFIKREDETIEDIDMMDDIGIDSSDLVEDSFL
- experimental protocol: Biochemical assay for PDGFRα D842V (coupled pyruvate kinase/lactate dehydrogenase)
- recorded conditions: 0.5 mM ATP, 3 nM PDGFRA D842V; read-out: IC50, inhibition of recombinant D842V mutant PDGFRα enzyme activity
parameter measured: pIC50
Answer as the number alone; pIC50 is minus log10 of concentration in mol/L.

What value of measured pIC50 is listed for `CCn1c(=O)c(-c2cc(NC(=O)Nc3ccccc3)c(F)cc2Br)cc2cnc(N)cc21` ?
7.70

----------
- System: FIP1L1-PDGFRα fusion in EOL-1 cells
- experimental protocol: EOL-1 Western blot, phospho-PDGFRα (Tyr754)
- Assay type: cell-based
- recorded conditions: Homo sapiens, EOL1, 4 hours, read-out: IC50, inhibition of phosphorylation of FIP1L1-PDGFRα fusion in EOL-1 cells
pIC50: −log10 of the molar value.
parameter measured: pIC50

Data request, read-out pIC50, for `CCn1c(=O)c(-c2cc(NC(=O)Nc3ccccc3)c(F)cc2Br)cc2cnc(N)cc21`
> 10.00
